- TARGET DESC: OPRK (Homo sapiens)
- TEST SUMMARY: biochemical
- Assay type: binding
- Parameters: expressed in transfected cells; host or cells: CHO-K1
- TEST PARAMETERS: Ki, [3H]-U69,593
OBSERVABLE: Ki (µM)
Supply the numeric figure in µM, leaving out any unit text.

Entry under review: COCCC1CC2CN3CCc4c([nH]c5ccccc45)C(C(=O)OC)(C2)C13 (stereo not shown) [18-MC, 18-methoxycoronaridine, reference compound] . Reported Ki?
1.84

----------
- TARGET DESC: OPRK (Homo sapiens, UniProt P41145)
- Sequence (P41145 whole entry): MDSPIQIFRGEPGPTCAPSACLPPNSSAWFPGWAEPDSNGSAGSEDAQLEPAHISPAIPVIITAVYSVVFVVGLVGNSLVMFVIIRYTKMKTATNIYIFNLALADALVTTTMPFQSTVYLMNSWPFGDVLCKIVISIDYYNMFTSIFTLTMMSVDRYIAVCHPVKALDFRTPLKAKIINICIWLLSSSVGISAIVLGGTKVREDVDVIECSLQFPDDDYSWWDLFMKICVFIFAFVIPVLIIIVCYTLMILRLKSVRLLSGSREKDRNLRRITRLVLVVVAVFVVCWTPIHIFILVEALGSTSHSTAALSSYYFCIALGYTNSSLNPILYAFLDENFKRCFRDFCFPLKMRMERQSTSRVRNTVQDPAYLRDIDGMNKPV
- TEST SUMMARY: biochemical
- Format: binding
- Set-up: expressed in transfected cells; host or cells: CHO-K1
- TEST PARAMETERS: Ki, Table 9 summary column; value of this work
OBSERVABLE: Ki

Entry under review: COCCC1CC2CN3CCc4c([nH]c5ccccc45)C(C(=O)OC)(C2)C13 (stereo not shown) [18-MC, 18-methoxycoronaridine, reference compound] . Reported Ki?
1800 nM

----------
- Tested on: human OPRK
- TEST SUMMARY: biochemical
- Assay type: binding
- TEST PARAMETERS: from literature (or literature/this work) values
OBSERVABLE: ΔpKi = pKi(OPRK) − pKi(OPRM), OPRK Specificity
Kindly provide the number alone.

COMPOUND	READING
NC(N)=Nc1ccc2c3c([nH]c2c1)[C@@H]1Oc2c(O)ccc4c2[C@@]12CCN(CC1CC1)[C@H](C4)[C@]2(O)C3 [6′GNTI, 6′-guanidinonaltrindole]	1.84
Oc1ccc2c3c1O[C@H]1c4[nH]c5c(c4C[C@@]4(O)[C@@H](C2)N(CC2CC2)CC[C@]314)C[C@@]1(O)[C@H]2Cc3ccc(O)c4c3[C@@]1(CCN2CC1CC1)[C@H]5O4 [NorBNI, nor-binaltorphimine, reference compound]	2.0
CC[C@H]1CC2C[C@H]3c4[nH]c5ccc(O)cc5c4CCN(C2)C13 [Noribogaine, noribogaine]	0.4

Now consider a different compound.
Recorded ΔpKi = pKi(OPRK) − pKi(OPRM), OPRK Specificity for COCCC1CC2CN3CCc4c([nH]c5ccccc45)C(C(=O)OC)(C2)C13 (centres unmarked) [18-MC, 18-methoxycoronaridine, reference compound] with human OPRK, please?
−0.7
